Data provenance: patent US20180362993A1

Reported % Change Fresh Weight values are given for each entry in this list.
Tested on: soy
Experiment: Drought resistance in seed-treated soy
Assay type: in vivo
Details: soy seed treatment 0.9 μg/seed, vs mock
assay_readout: % Change Fresh Weight (%)

[
  {
    "ordered_residues": "AGQTSGMSPMEQLMKIFADITQSLFGDQDG (P13-12 peptide) [Peptide P13-12]",
    "subject_of_test": "soy",
    "measured_value": 0.77
  },
  {
    "ordered_residues": "AGQTSGMSPMEELMKIFADITQSLFGDQDG (P13-45 peptide) [Peptide P13-45]",
    "subject_of_test": "soy",
    "measured_value": 3.6
  },
  {
    "ordered_residues": "SEEMSPMEQLMKIFADITQSLFEE (P13-36 peptide) [Peptide P13-36]",
    "subject_of_test": "soy",
    "measured_value": 1.46
  },
  {
    "ordered_residues": "MEEMEQLMKIFEEIEQELFEEEE (P13-37 peptide) [Peptide P13-37]",
    "subject_of_test": "soy",
    "measured_value": 0.58
  },
  {
    "ordered_residues": "LSGAGQTSGMSPMEQLMKIFADITQSLFGDQDG (P13-11 peptide) [Peptide P13-11]",
    "subject_of_test": "soy",
    "measured_value": 3.42
  }
]

====

Test system: corn
Assay: Drought resistance in seed-coated corn
Type: in vivo
Settings: corn seed treatment 1.05 μg/seed, vs mock
Marks after values point to notes of the source that are not given here.

[
  {
    "ordered_residues": "MEEMEQLMKIFEEIEQELFEEEE (P13-37 peptide) [Peptide P13-37]",
    "% Change Dry Weight": "5.53** %"
  },
  {
    "ordered_residues": "SEEMSPMEQLMKIFADITQSLFEE (P13-36 peptide) [Peptide P13-36]",
    "% Change Dry Weight": "7.95** %"
  },
  {
    "ordered_residues": "AGQTSGMSPMEQLMKIEADITQSLFGDQDG (P13-52 peptide) [Peptide P13-52]",
    "% Change Dry Weight": "4.49** %"
  },
  {
    "ordered_residues": "QTGDDSLSGAGQTSGMSPMEQLMKIFADITQSLFG (P13-14 peptide) [Peptide P13-14]",
    "% Change Dry Weight": "7.92** %"
  }
]

====

Test system: corn
Experiment: Drought resistance in seed-coated corn
Type: in vivo
Conditions: corn seed treatment 1.05 μg/seed, vs mock
Marks after values point to notes of the source that are not given here.

[
  {
    "ordered_residues": "SQEEEMEPMEQLMEIFEEIEQELFG (P13-26 peptide) [Peptide P13-26]",
    "% Change Dry Weight": "5.92** %"
  },
  {
    "ordered_residues": "SEQEEEMEEMEQLMEIFEEIEQELFE (P13-28 peptide) [Peptide P13-28]",
    "% Change Dry Weight": "6.04** %"
  },
  {
    "ordered_residues": "AGQTSGMSPMEQLMKIFADITESLFGDQDG (P13-43 peptide) [Peptide P13-43]",
    "% Change Dry Weight": "6.73** %"
  },
  {
    "ordered_residues": "LSPLEQLMKIFADITQSLFEEEE (P13-5 peptide) [Peptide P13-5]",
    "% Change Dry Weight": "5.07* %"
  }
]
